# System: KM20L2 colon
# assay.procedure: NCI tumour cell line growth inhibition, 48 h
attribute.measured: TGI

Value of measured TGI for the entry CC[C@@]1(O)C(=O)OCc2c1c(Cl)c1n(c2=O)Cc2cc3ccccc3nc2-1 : > 100 µM

The reported value for CCCCOC(=O)/C(CC(=O)C=C(C)C)=N\NS(=O)(=O)c1ccc(C)cc1 in terms of TGI is > 100 µM

The compound COc1ccc2[nH]c3c(cnn4cnnc34)c2c1 showed TGI equal to > 100 µM

====

For each of the compounds below, state its TGI.
# System: NCI-H460 lung
# assay.procedure: NCI tumour cell line growth inhibition, 48 h

The reported value for COc1cc(C)cc2c1OC(c1ccccc1)CC2=O (stereo not given) in terms of TGI is > 100 µM

Short answer for CC(=NNC(=S)Nc1ccccc1C)c1cccc(C(C)=NNC(=S)Nc2ccccc2C)n1 : TGI was > 100 µM

Form: compound = COc1ccc(NC(=O)C2=C(SC)C(C#N)C(=O)N=C2N)cc1 (stereo not given) ; TGI = > 100 µM

Looking up S=C(Nc1ccccc1)c1ccccn1 , I found its TGI recorded as > 100 µM

So for COc1cc(C2c3cccc4cccc(c34)C3CCC(=O)N32)cc(O)c1O (stereo not given) , the logged TGI turned out to be > 50 µM

====

# Tested on: MOLT-4 leukemia
# assay.procedure: NCI tumour cell line growth inhibition, 48 h
attribute.measured: TGI (µM)
Write the number in µM without appending the unit.

Test item CCN(CC)c1ccc(/C=N/NC(=O)c2ccc(Nc3ccnc(C(F)(F)F)c3)cc2)c(O)c1 ; MOLT-4 leukemia; reported TGI was 1.38

Entry CC(C)(C)Cn1c(N)nc2ccc(-c3[nH]c(C(C)(C)C)nc3-c3ccc(F)cc3)nc21 : TGI on MOLT-4 leukemia = 36.9

====

For each of the compounds below, state its TGI.
# System: UACC-62 melanoma
# assay.procedure: NCI tumour cell line growth inhibition, 48 h

Entry under test: O=c1c2cc(I)ccc2nc(-c2cccs2)n1Nc1ccccc1 . Its TGI was > 100 µM

Per the records, this compound ( O=C(/C=C/c1ccc(O)c(O)c1)NC(CO)C(=O)O (stereo not given) ) has TGI equal to > 100 µM

Record O=[N+]([O-])c1ccc(Cc2nc3ccccc3s2)cc1 , field TGI: > 100 µM

TGI for Cc1sc2ncnc(Sc3nc4ccccc4[nH]3)c2c1C is > 100 µM

GET /value?item= COc1cc2c(cc1OC)-c1c(cnn1C1OC(COC(C)=O)C(OC(C)=O)C(OC(C)=O)C1OC(C)=O)CC2 (stereo not given) &field=TGI returns > 100 µM

Entry under test: CCN(CC)c1ccc(/C=N/NC(=O)c2ccc(Nc3ccnc(C(F)(F)F)c3)cc2)c(O)c1 . Its TGI was 0.898 µM

The reported TGI of the compound CCCCCCCCCCCCCCCCC(C(=O)O)C(O)(CC(=O)O)C(=O)O (stereo not given) was 48.9 µM

What the record says about COc1ccc2c(c1)c(Cc1c(C)n(C)c3ccc(OC)cc13)c(C)n2C : TGI is > 100 µM

Entry N[C@@H]1C[C@H](N)c2c(Cl)sc(Cl)c21 ; TGI = > 100 µM

TGI in this record for CSc1nc(C)cc(Nc2ccc(O)c(CN3CCCCC3)c2)n1 : > 100 µM

Lab book: TGI of N#CCCc1nc2ccc(Br)cc2c(=O)n1-c1ccc(O)c([N+](=O)[O-])c1 noted as 38.5 µM

TGI reading for Cc1ccc(NC(=O)c2ccnc(C(F)(F)F)c2)cc1-c1cc(OCCO)nc(N2CCOCC2)c1 : 4.54 µM

The compound identified as O=C(O)CC(Cc1ccc2c(c1)OCO2)C(=O)O (stereo not given) registered its TGI at > 100 µM

Short answer for CC(=O)OCC(=O)[C@@]1(O)[C@H](C)C[C@H]2[C@@H]3C=C(C)C4=Cc5c(cnn5-c5ccc(F)cc5)C[C@]4(C)[C@H]3[C@@H](O)C[C@@]21C : TGI was 3.78 µM

The measured TGI associated with COc1ccc(NC=O)c(C(O)CCNC(C)=O)c1 (stereo not given) reads > 100 µM
